target.system: carbonic anhydrase IX (Homo sapiens)
protocol.details: In vitro carbonic anhydrase IX enzyme inhibition
Format: biochemical
settings: CA IX IC50 (μM)
reported.endpoint: IC50

test.smiles | reported.endpoint | result
NS(=O)(=O)c1ccc(NC2=NC(=O)/C(=C\c3ccc([N+](=O)[O-])cc3)S2)cc1 | IC50 | 0.017 µM
C=CCc1cc(/C=C2/SC(Nc3ccc(S(N)(=O)=O)cc3)=NC2=O)c(O)c(OC)c1 | IC50 | 0.011 µM
COc1cc(/C=C2/SC(Nc3ccc(S(N)(=O)=O)cc3)=NC2=O)ccc1O | IC50 | 0.026 µM

====

Entries and their Biofilm inhibition ratio% E. coli values follow.
System: E. coli
protocol.details: Anti-biofilm activity
Assay type: cell-based
settings: 50 μg mL^−1

test.smiles | units.of.measure | Biofilm inhibition ratio% E. coli
COc1cc(/C=C2/SC(Nc3ccc(S(N)(=O)=O)cc3)=NC2=O)cc(OC)c1OC | % | 49.72
C=CCc1cc(/C=C2/SC(Nc3ccc(S(N)(=O)=O)cc3)=NC2=O)c(O)c(OC)c1 | % | 15.47
COc1cc(/C=C2/SC(Nc3ccc(S(N)(=O)=O)cc3)=NC2=O)ccc1O | % | 19.89
NS(=O)(=O)c1ccc(NC2=NC(=O)/C(=C\c3ccc(O)cc3)S2)cc1 | % | 18.78
NS(=O)(=O)c1ccc(NC2=NC(=O)/C(=C\c3ccc(C(=O)O)cc3)S2)cc1 | % | 19.89
